Biological target: Cyclin-dependent protein kinase PHO85 (Saccharomyces cerevisiae S288c)
Sequence (P17157 whole entry): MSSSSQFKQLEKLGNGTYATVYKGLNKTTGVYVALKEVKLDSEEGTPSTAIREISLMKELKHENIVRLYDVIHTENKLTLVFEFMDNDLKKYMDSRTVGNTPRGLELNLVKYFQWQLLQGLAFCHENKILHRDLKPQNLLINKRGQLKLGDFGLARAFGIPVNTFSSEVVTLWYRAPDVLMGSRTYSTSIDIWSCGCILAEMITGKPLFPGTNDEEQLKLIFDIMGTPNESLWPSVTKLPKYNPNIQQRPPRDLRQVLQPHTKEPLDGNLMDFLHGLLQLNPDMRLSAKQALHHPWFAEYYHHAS
Test: Inhibition of yeast W303 Pho85 phosphorylation assessed as [32P] incorporation in histone H1 from [gamma32P]ATP by scintillation counting
MEASUREMENT_LABEL: IC50

>>> result("CC(C)n1cnc2c(N(C)c3cccc(Cl)c3)nc(NCCO)nc21")
"> 500 µM"

----------
Experiment: Inhibition of human Raf kinase
pIC50: −log10 of the molar value.
MEASUREMENT_LABEL: pIC50

>>> result("CC(C)[C@H](CO)Nc1nc(Nc2ccc(C(=O)O)c(Cl)c2)c2ncn(C(C)C)c2n1 [PURVALANOL B]")
"< 5.00"
>>> result("CC(C)[C@H](CO)Nc1nc(Nc2cccc(Cl)c2)c2ncn(C(C)C)c2n1 [PURVALANOLA]")
"< 6.00"

The values you see were collected from ChEMBL document CHEMBL1153829.
